Each item that follows carries a reported mass density.
applied.conditions: 318.15 K; 100 kPa; Liquid; Vibrating tube method
assay.readout: mass density (kg/m3)

In [3]: df
Out[3]:
               molecule  assay_readout  measured_number
0    CCCO [propan-1-ol]   mass density           784.45
1    CCCCO [butan-1-ol]   mass density           790.22
2         CCO [ethanol]   mass density            767.6
3  CCCCCO [pentan-1-ol]   mass density           795.98
